Molecular target: Cynomolgus Factor P (cynomolgus)
Test: cell-based or functional assay
The following binders are listed with their measured MAC Deposition, 20% Serum EC50 values.
Response body: numeric value in nM, unit text excluded.

## Task // Input: NVS962 (Fab, V domains shown, also called Fab NVS962) VH: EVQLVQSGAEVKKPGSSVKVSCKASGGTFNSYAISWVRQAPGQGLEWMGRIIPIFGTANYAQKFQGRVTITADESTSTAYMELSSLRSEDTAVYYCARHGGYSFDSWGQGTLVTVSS VL: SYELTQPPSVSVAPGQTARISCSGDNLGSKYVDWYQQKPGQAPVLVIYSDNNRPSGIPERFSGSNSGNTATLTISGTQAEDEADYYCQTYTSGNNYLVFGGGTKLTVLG . Output its MAC Deposition, 20% Serum EC50 only.
## Result 12.1

## Task // Input: NVS805 (Fab, V domains shown) VH: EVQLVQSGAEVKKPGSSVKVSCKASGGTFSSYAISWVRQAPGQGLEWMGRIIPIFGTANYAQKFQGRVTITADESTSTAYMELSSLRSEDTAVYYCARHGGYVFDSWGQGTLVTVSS VL: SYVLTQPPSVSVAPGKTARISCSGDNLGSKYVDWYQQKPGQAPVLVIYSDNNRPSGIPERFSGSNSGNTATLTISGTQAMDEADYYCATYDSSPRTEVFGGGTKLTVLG . Output its MAC Deposition, 20% Serum EC50 only.
## Result 5.95

## Task // Input: NVS965-Q (Fab, V domains shown, NVS965 with heavy chain N30 replaced with glutamine) VH: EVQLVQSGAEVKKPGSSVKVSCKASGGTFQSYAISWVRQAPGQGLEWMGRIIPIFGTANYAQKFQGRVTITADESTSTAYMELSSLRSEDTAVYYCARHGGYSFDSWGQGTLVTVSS VL: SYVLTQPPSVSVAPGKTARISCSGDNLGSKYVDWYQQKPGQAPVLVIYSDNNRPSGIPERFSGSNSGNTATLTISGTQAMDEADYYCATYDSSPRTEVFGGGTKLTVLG . Output its MAC Deposition, 20% Serum EC50 only.
## Result 9.39

## Task // Input: NVS962-G (Fab, V domains shown, NVS962 with heavy chain N30 replaced with glycine) VH: EVQLVQSGAEVKKPGSSVKVSCKASGGTFGSYAISWVRQAPGQGLEWMGRIIPIFGTANYAQKFQGRVTITADESTSTAYMELSSLRSEDTAVYYCARHGGYSFDSWGQGTLVTVSS VL: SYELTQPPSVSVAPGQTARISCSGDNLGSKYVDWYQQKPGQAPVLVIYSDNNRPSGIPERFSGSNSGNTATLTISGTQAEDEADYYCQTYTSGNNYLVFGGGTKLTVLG . Output its MAC Deposition, 20% Serum EC50 only.
## Result 9.27

## Task // Input: NVS962-S (Fab, V domains shown, NVS962 with heavy chain N30 replaced with serine) VH: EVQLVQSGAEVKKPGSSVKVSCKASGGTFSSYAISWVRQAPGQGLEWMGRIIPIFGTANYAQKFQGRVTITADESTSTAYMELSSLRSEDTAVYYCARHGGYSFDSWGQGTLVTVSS VL: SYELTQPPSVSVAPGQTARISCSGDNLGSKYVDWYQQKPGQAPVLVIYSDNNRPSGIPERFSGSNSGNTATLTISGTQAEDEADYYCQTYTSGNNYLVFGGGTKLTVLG . Output its MAC Deposition, 20% Serum EC50 only.
## Result 15.6
